Test system: U251 CNS
Returns: one label drawn from true (1) = active, false (0) = inactive

Answered cases to consult:
[
  {
    "compound": "CCN(Cc1cccc(F)c1)c1ccc(CO)c(Cl)c1",
    "target.under.test": "U251 CNS",
    "category": "false (0)"
  },
  {
    "compound": "Cc1sc2nc(-c3ccncc3)c(/C=N/N=C(N)N)n2c1C",
    "target.under.test": "U251 CNS",
    "category": "false (0)"
  },
  {
    "compound": "C=C1C(O)C2C(=C(CCc3ccccc3)C13CC3)C(=O)C(C)(CO)C2O (stereo not given)",
    "target.under.test": "U251 CNS",
    "category": "false (0)"
  },
  {
    "compound": "COc1cccc(-c2nc3sccn3c2-c2ccnc(NCCCNS(=O)(=O)c3cccc(F)c3)c2)c1",
    "target.under.test": "U251 CNS",
    "category": "false (0)"
  },
  {
    "compound": "CCCNNC(=O)/C=C/c1ccc(CNCCc2c(C)[nH]c3ccccc23)cc1",
    "target.under.test": "U251 CNS",
    "category": "true (1)"
  },
  {
    "compound": "Cc1nc(SCC(=O)Nc2nc(-c3ccc(Cl)cc3)cs2)n(Nc2ccccc2)c1C",
    "target.under.test": "U251 CNS",
    "category": "false (0)"
  },
  {
    "compound": "COc1cc(NC(N)=NCCC(C)(C)Oc2ccc(C(F)(F)F)cc2)ncc1C#N",
    "target.under.test": "U251 CNS",
    "category": "false (0)"
  },
  {
    "compound": "Cc1ccc(C)c2c1C(O)(C#Cc1ccccc1)c1ccccc1C2(O)C#Cc1ccccc1 (stereo not given)",
    "target.under.test": "U251 CNS",
    "category": "false (0)"
  },
  {
    "compound": "CNC(=O)c1ccc(N2CCN(Cc3ccc4nc(C)c(=O)[nH]c4c3F)CC2)c(F)n1",
    "target.under.test": "U251 CNS",
    "category": "false (0)"
  }
]

Next, consider the following compound.
Status in this test for CC(C)(C)C(=O)c1c(C(F)(F)F)n([O-])c2ccccc2[n+]1=O ?
true (1)
